Origin of the recorded values: patent US10428140B2

# test system: T1, human EphA3 (Homo sapiens, UniProt P29320)
# T1 construct: a protein of the extracellular region of each human Eph receptor fused with the SEAP protein and the His tag; made in house; host or cells: Expi293F cells (culture supernatant)
# T1 sequence (P29320 21-541 limits assumed): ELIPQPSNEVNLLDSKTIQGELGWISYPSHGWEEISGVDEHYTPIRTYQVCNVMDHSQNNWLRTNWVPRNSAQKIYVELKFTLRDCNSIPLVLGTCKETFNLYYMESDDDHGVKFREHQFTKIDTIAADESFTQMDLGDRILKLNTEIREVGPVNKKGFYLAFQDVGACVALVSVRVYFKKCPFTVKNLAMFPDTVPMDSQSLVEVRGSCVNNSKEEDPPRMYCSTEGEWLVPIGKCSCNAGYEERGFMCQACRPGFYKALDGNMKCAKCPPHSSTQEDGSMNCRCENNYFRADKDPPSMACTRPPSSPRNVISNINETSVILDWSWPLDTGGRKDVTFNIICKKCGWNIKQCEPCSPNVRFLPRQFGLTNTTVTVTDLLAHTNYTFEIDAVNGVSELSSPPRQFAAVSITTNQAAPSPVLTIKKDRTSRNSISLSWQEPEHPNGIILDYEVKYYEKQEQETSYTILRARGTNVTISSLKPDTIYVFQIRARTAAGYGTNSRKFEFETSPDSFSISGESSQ
# procedure text: Selectivity ELISA of humanized antibodies for human Eph receptor
# Type: binding
# particulars: coated protein 1 nM
test readout: hEphA3-SEAP-: absorbance at 450 nm, percentage with respect to hEphA4-SEAP-His as 100% (%)

INSERT INTO measurements (molecule, result) VALUES
  ('136 (antibody, V domains shown, synthetic humanized antibody heavy chain variable region sequence; synthetic humanized antibody light chain variable region sequence) VH: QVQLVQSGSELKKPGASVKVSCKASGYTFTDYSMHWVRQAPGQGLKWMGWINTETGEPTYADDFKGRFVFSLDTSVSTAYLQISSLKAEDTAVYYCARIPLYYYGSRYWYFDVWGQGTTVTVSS VL: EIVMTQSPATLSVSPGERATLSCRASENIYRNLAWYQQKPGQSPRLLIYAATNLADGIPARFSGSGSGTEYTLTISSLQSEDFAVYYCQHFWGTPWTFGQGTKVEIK', 5.2);
